- assayProtocol: chemical genetic growth profiling, strain panel (AID 1159580);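 note: tested at 20 µM; growth read once vehicle control cultures reached saturation at 30 °C; 1 = growth at the plate median or of vehicle wells; lower values mean less growth of the strain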
- conditionLabel: S. cerevisiae deletion strains, growth OD, locus YNL183C, strain NPR1, active compounds read low
Among all 5,500 compounds or so, about 2,000 (36%) were called active. Inconclusive results (about 18%) are left out. This is one part of the list.
Simple rule here: normalized growth less than 0.9 is Condition met, otherwise Condition not met.

Request: API: query returns whether the compound falls strictly under 0.9 in normalized growth. Query: O=C1CCc2cc(OCCCCc3nnnn3C3CCCCC3)ccc2N1
Result: Condition not met

Request: API: query returns whether the compound falls strictly under 0.9 in normalized growth. Query: Fc1ccc(N/N=C\Cc2nnnn2-c2ccccc2)c(F)c1
Result: Condition met

Request: API: query returns whether the compound falls strictly under 0.9 in normalized growth. Query: CC(=O)OCC(=O)[C@H]1CCC2C3CC=C4C[C@@H](O)CC[C@]4(C)C3CC[C@@]21C (some centres undefined)
Result: Condition not met

Request: API: query returns whether the compound falls strictly under 0.9 in normalized growth. Query: CCCN1C[C@H](CSC)C[C@@H]2c3cccc4[nH]cc(c34)C[C@H]21
Result: Condition not met

Request: API: query returns whether the compound falls strictly under 0.9 in normalized growth. Query: CC(=O)[C@H]1CCC2C3CC=C4C[C@@H](O)CC[C@]4(C)C3CC[C@@]21C (some centres undefined)
Result: Condition met

Request: API: query returns whether the compound falls strictly under 0.9 in normalized growth. Query: CC(=O)[C@H]1CCC2C3CC=C4C[C@@H](OC(=O)CCC(=O)O)CC[C@]4(C)C3CC[C@@]21C (some centres undefined)
Result: Condition not met

---

- assayProtocol: chemical genetic growth profiling, strain panel (AID 1159580);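 note: tested at 20 µM; growth read once vehicle control cultures reached saturation at 30 °C; 1 = growth at the plate median or of vehicle wells; lower values mean less growth of the strain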
- conditionLabel: S. cerevisiae deletion strains, growth OD, strain NNK1, active compounds read low
Hit rate of the full screen: of about 5,500 compounds, about 2,000 (36%) were called active. Another 18% or so got no clear call; they are omitted. Some of the results follow.
endpoint: normalized growth
Hey, just send me the number, nothing else.

Request: Item COc1cc(NC(=S)Nc2ccccc2OC(F)(F)F)cc(C(F)(F)F)c1 has what recorded normalized growth?
Result: 0.974

Request: Item Cc1cc(C(=O)O/N=C(/N)CSc2ncccc2C(F)(F)F)no1 has what recorded normalized growth?
Result: 1.01

Request: Item CCC(C)COC(=O)/C=C/c1ccc(N=Cc2ccc(OC)cc2)cc1 (configuration not stated) has what recorded normalized growth?
Result: 0.941

Request: Item O=C1Nc2ccccc2/C1=N/N=C\c1ccccc1Cl has what recorded normalized growth?
Result: 0.967

Request: Item N/C(CSc1ccc(Cl)cc1)=N/OC(=O)c1ccc(C(F)(F)F)cc1 has what recorded normalized growth?
Result: 0.862

Request: Item N#CCCCCOc1ccc2c(=O)cc(-c3ccccc3)oc2c1 has what recorded normalized growth?
Result: 0.975

Request: Item CCCc1cnc(N2CCN(CC(=O)N(c3ccccc3)C3CCCCC3)CC2)nc1 has what recorded normalized growth?
Result: 0.99

Request: Item O=C1c2ccccc2O[C@@H](c2ccccc2)[C@@H]1NC1CCCCC1 has what recorded normalized growth?
Result: 0.905

Request: Item CCC(C)Cn1c(Sc2ncc([N+](=O)[O-])s2)n[nH]c1=O (configuration not stated) has what recorded normalized growth?
Result: 0.932

Request: Item O=C(NCc1cccs1)c1csc(Cc2c(Cl)cccc2Cl)n1 has what recorded normalized growth?
Result: 0.977

Request: Item O=C(CSCc1nc(-c2ccc(Cl)cc2)cs1)N/N=C\c1cccs1 has what recorded normalized growth?
Result: 0.966

Request: Item CC(C)(C)c1csc(NC(=O)c2ccc(Cl)cc2Cl)n1 has what recorded normalized growth?
Result: 0.938

Request: Item Cc1ccc2c(c1)CCCN2CC(=O)N(c1ccccc1)C1CCCCC1 has what recorded normalized growth?
Result: 0.973

Request: Item O=C1Nc2ccccc2/C1=N/N=C\c1cc(Br)cc(Br)c1O has what recorded normalized growth?
Result: 0.34

Request: Item CN(C(=O)N(C)c1ccc(Cl)cc1C(=O)c1ccccc1Cl)c1ccc(Cl)cc1C(=O)c1ccccc1Cl has what recorded normalized growth?
Result: 0.855

Request: Item N=c1ccc2nc3c(Cl)c4c(c(Cl)c3oc-2c1S(=O)(=O)O)Nc1ccc(N)c(S(=O)(=O)O)c1O4 has what recorded normalized growth?
Result: 1.03

Request: Item CC(C)(C)c1cc2nc(C(F)(F)F)cc(NNC(=O)c3ccc(Cl)cc3)n2n1 has what recorded normalized growth?
Result: 0.983
